The origin of these recorded values is ChEMBL document CHEMBL1125344.

# assay.system: Platelet-activating factor receptor (Mus musculus) (UniProt Q62035)
# Sequence (Q62035 whole entry): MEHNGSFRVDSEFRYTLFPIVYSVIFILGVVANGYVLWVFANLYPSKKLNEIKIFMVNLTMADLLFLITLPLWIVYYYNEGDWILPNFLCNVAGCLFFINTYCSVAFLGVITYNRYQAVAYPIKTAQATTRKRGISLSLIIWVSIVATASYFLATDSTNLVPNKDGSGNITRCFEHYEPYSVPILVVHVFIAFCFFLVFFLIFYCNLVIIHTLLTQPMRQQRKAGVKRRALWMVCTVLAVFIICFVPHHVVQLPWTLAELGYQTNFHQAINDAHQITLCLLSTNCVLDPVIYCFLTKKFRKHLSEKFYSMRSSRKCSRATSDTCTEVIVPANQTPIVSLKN
# protocol.summary: Oral dose required to inhibit PAF-induced mortality (PAF-Antagonistic activity)in mice by 50%.
# Type: functional
# experimental.parameters: Mus sp.
Sorting guide: entries reporting ID50 beneath 30 mg/kg go in the 1 pile, the rest go in the 0 pile.

Problem: State whether 30 mg/kg exceeds ID50 recorded for COc1cc(CC(=O)N2CCN(C(C#N)c3cccnc3)CC2)cc(OC)c1OC (stereo not given) .
Solution: 0

Problem: Request: CC(C(=O)N1CCN(C(C#N)c2cccnc2)CC1)(c1ccccc1)c1ccccc1 (stereo not given)
Solution: 0

Problem: Request: COc1cc(C(=O)N2CCN(C(C#N)c3cccnc3)CC2)cc(OC)c1OC (stereo not given)
Solution: 0

Problem: Request: N#CC(c1cccnc1)N1CCN(C(=O)C=C(c2ccccc2)c2ccccc2)CC1 (stereo not given)
Solution: 0

Problem: Request: N#CC(c1cccnc1)N1CCN(C(=O)Cc2cccc3ccccc23)CC1 (stereo not given)
Solution: 0

Problem: Request: CC(c1ccccc1)N(C)CC(=O)N1CCN(C(C#N)c2cccnc2)CC1 (stereo not given)
Solution: 0

Problem: Request: N#CC(c1ccncc1)N1CCN(C(=O)CCNC(c2ccccc2)c2ccccc2)CC1 (stereo not given)
Solution: 1

Problem: Request: N#CC(c1cccnc1)N1CCN(C(=O)CNc2ccccc2)CC1 (stereo not given)
Solution: 1

Problem: Request: N#CC(c1ccncc1)N1CCN(C(=O)CC(O)(c2ccccc2)c2ccccc2)CC1 (stereo not given)
Solution: 1

Problem: Request: N#CC(c1cccnc1)N1CCN(C(=O)C(Cc2ccccc2)Cc2ccccc2)CC1 (stereo not given)
Solution: 0

---

# assay.system: Platelet-activating factor receptor (Rattus norvegicus) (UniProt P46002)
# Sequence (P46002 whole entry): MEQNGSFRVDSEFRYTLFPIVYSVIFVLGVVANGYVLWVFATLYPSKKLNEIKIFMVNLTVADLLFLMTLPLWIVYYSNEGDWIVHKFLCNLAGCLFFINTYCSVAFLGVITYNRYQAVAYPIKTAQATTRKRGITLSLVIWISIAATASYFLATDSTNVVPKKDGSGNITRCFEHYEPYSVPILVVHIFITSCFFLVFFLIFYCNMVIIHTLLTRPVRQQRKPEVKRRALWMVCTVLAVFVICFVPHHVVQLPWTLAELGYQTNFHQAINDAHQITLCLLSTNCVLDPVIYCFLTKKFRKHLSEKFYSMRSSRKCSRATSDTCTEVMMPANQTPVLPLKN
# protocol.summary: Dose required to inhibit PAF-induced hypotension (PAF-Antagonistic activity) in normotensive rats by 50%.
# Format: functional
Exercise: for every item that follows, state its recorded ID50.
Note: unit mg/kg is implicit; provide only the numeric part.

Problem: Query ID50 on Platelet-activating factor receptor (Rattus norvegicus) (UniProt P46002) for N#CC(c1cccnc1)N1CCN(C(=O)CCNC(c2ccccc2)c2ccccc2)CC1 (stereo not given)
Solution: 0.025

Problem: Request: N#CC(c1cccnc1)N1CCN(C(=S)C(c2ccccc2)c2ccccc2)CC1 (stereo not given)
Solution: 0.45

Problem: Request: N#CC(c1cccnc1)C1CCN(C(=O)CNC(c2ccccc2)c2ccccc2)CC1 (stereo not given)
Solution: 0.03

Problem: Request: N#CC(c1cccnc1)N1CCN(CCC(c2ccccc2)c2ccccc2)CC1 (stereo not given)
Solution: 3.1

Problem: Request: N#CC(c1cccnc1)N1CCN(C(=O)CN(Cc2ccccc2)Cc2ccccc2)CC1 (stereo not given)
Solution: 1.7

Problem: Request: N#CC(c1cccnc1)N1CCN(C(=O)CNC(c2ccccc2)c2ccccc2)CC1 (stereo not given)
Solution: 0.023

Problem: Request: N#CC(c1cccnc1)N1CCN(C(=O)CNc2ccccc2)CC1 (stereo not given)
Solution: 0.49

---

# assay.system: Platelet-activating factor receptor (Rattus norvegicus)
# protocol.summary: Dose required to inhibit PAF-induced hypotension (PAF-Antagonistic activity) in normotensive rats by 50%.
# Type: functional
property.label: ID50 (mg/kg)
Note: unit mg/kg is implicit; provide only the numeric part.

Problem: Which ID50 reading was recorded for the compound N#CC(c1cccnc1)N1CCN(C(=O)Cc2cccc3ccccc23)CC1 (configuration not stated) ?
Solution: 1.3

Problem: Request: COc1cc(C(=O)N2CCN(C(C#N)c3cccnc3)CC2)cc(OC)c1OC (configuration not stated)
Solution: 4.4

Problem: Request: N#CC1(Nc2cccnc2)CCN(C(=O)CNC(c2ccccc2)c2ccccc2)CC1
Solution: 0.096

Problem: Request: N#CC(c1cccnc1)N1CCN(C(=O)CCc2ccccc2)CC1 (configuration not stated)
Solution: 1.2

Problem: Request: N#CC(c1cccnc1)N1CCN(C(=O)/C=C/c2ccccc2)CC1 (configuration not stated)
Solution: 0.24

Problem: Request: COc1cc(CCC(=O)N2CCN(C(C#N)c3cccnc3)CC2)cc(OC)c1OC (configuration not stated)
Solution: 2

Problem: Request: Cn1ccc(C(C#N)N2CCN(C(=O)CC(c3ccccc3)c3ccccc3)CC2)c1 (configuration not stated)
Solution: 4.2

Problem: Request: COc1cc(C(=O)N2CCN(C(=O)c3cc(OC)c(OC)c(OC)c3)CC2)cc(OC)c1OC
Solution: 4.7

Problem: Request: O=C(CC(c1ccccc1)c1ccccc1)N1CCN(Cc2cccnc2)CC1
Solution: 0.48

Problem: Request: N#CC(c1cccnc1)N1CCN(C(=O)C(c2ccccc2)c2ccccc2)CC1 (configuration not stated)
Solution: 0.11

Problem: Request: N#CC(c1cccnc1)N1CCN(C(=O)Cc2c[nH]c3ccccc23)CC1 (configuration not stated)
Solution: 3.3

Problem: Request: N#CC(c1cccnc1)N1CCN(C(=O)CNCC(c2ccccc2)c2ccccc2)CC1 (configuration not stated)
Solution: 0.36

Problem: Request: CC(NCC(=O)N1CCN(C(C#N)c2cccnc2)CC1)c1ccccc1 (configuration not stated)
Solution: 0.39

Problem: Request: N#CC(c1ccncc1)N1CCN(C(=O)CCNC(c2ccccc2)c2ccccc2)CC1 (configuration not stated)
Solution: 0.037

Problem: Request: CN(CC(=O)N1CCN(C(C#N)c2cccnc2)CC1)c1ccccc1 (configuration not stated)
Solution: 2.2

Problem: Request: N#CC(c1ccncc1)N1CCN(C(=O)CC(c2ccccc2)c2ccccc2)CC1 (configuration not stated)
Solution: 0.041

Problem: Request: CN(CC(=O)N1CCN(C(C#N)c2cccnc2)CC1)C(c1ccccc1)c1ccccc1 (configuration not stated)
Solution: 0.33

Problem: Request: N#CC(c1cccnc1)N1CCN(C(=O)Cc2ccccc2)CC1 (configuration not stated)
Solution: 1.5

Problem: Request: N#CC(c1ccncc1)N1CCN(C(=O)CC(O)(c2ccccc2)c2ccccc2)CC1 (configuration not stated)
Solution: 0.061

Problem: Request: CC(c1ccccc1)N(C)CC(=O)N1CCN(C(C#N)c2cccnc2)CC1 (configuration not stated)
Solution: 0.77

Problem: Request: N#CC(c1cccnc1)N1CCN(C(=O)CNC(Cc2ccccc2)c2ccccc2)CC1 (configuration not stated)
Solution: 0.38

Problem: Request: CC(C(=O)N1CCN(C(C#N)c2cccnc2)CC1)c1ccccc1 (configuration not stated)
Solution: 0.26

Problem: Request: N#CC(c1cccnc1)N1CCN(CCNC(=O)C(c2ccccc2)c2ccccc2)CC1 (configuration not stated)
Solution: 0.29

Problem: Request: N#CC(c1cccnc1)N1CCN(C(=O)C(CCc2ccccc2)c2ccccc2)CC1 (configuration not stated)
Solution: 0.73

Problem: Request: O=C(C(c1ccccc1)c1ccccc1)N1CCN(Cc2cccnc2)CC1
Solution: 2.7

Problem: Request: N#CC(c1cccnc1)N1CCN(C(=O)/C(=C/c2ccccc2)c2ccccc2)CC1 (configuration not stated)
Solution: 0.17

Problem: Request: N#CC(c1cccnc1)N1CCN(C(=O)NC(c2ccccc2)c2ccccc2)CC1 (configuration not stated)
Solution: 0.29

Problem: Request: CC(C(=O)N1CCN(C(C#N)c2cccnc2)CC1)(c1ccccc1)c1ccccc1 (configuration not stated)
Solution: 0.14

Problem: Request: N#CC(c1cccnc1)N1CCN(C(=O)CNc2cccc3ccccc23)CC1 (configuration not stated)
Solution: 2.5

Problem: Request: N#CC(c1cccnc1)N1CCN(C(=O)CNCCCc2ccccc2)CC1 (configuration not stated)
Solution: 1.3
